molecular target: DNA (cytosine-5)-methyltransferase 1 (Homo sapiens) (UniProt P26358); assay: inhibition of DNA methyltransferase DNMT1 – biochemical, molecular beacon, fluorescence, HinP1I cleavage, uHTS, primary screen (AID 588458); conditions: at 10 µM, stronger effect = higher value
Sequence (P26358 504-1616 limits assumed): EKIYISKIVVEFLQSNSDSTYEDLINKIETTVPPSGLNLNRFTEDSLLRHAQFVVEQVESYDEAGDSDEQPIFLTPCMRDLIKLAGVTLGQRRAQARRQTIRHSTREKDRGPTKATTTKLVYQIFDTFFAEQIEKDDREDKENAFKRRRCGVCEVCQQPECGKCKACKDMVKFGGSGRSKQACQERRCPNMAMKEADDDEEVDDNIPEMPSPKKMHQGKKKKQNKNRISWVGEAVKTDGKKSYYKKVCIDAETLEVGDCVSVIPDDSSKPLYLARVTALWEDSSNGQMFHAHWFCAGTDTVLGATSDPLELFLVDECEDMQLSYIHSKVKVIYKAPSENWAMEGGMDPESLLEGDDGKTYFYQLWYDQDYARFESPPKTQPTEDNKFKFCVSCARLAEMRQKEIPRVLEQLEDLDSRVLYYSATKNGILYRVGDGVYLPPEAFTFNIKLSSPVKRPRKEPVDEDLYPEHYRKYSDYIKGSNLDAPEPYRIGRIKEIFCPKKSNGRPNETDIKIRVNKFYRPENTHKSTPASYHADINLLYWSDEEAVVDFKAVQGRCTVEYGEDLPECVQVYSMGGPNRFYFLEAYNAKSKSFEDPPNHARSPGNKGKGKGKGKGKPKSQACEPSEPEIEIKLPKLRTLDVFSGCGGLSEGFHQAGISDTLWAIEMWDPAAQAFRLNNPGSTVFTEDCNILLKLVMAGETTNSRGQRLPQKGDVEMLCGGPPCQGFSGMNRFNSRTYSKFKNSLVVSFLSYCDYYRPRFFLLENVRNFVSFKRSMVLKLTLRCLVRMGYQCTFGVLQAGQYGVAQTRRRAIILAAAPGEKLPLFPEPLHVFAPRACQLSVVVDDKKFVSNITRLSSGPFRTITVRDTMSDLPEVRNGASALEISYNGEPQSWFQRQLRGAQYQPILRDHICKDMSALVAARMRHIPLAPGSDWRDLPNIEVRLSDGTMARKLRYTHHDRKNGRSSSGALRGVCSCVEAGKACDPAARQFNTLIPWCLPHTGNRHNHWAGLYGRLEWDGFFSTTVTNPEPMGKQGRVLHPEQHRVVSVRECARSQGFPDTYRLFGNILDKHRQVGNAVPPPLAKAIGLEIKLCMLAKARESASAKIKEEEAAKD
Hit rate of the full screen: of about 360,000 compounds, about 3,000 (0.83%) were called active. This excerpt belongs to a sample that is enriched for actives.
metric: inhibition (reported as % activation of signal) (%)
Express the result in % but write the number alone.

Query :: Name the recorded inhibition (reported as % activation of signal) for CCC(C)OC(=O)C(C)Oc1ccc(-c2ccccc2)cc1 (stereo unspecified) .
Result :: -3.17

Query :: Also need CC1(Oc2ccc(Cl)cc2)CCN(Cc2csc3ccccc23)C1 (stereo unspecified) , thanks.
Result :: 1.6

Query :: Also need CCc1ccc(C(=O)C(C)OC(=O)CN2C(=O)NC3(CCCC3)C2=O)cc1 (stereo unspecified) , thanks.
Result :: 3.64

Query :: Also need `O=C1COc2ccc(NC(=O)N3CCN(c4ccc(F)cc4)CC3)cc2N1` , thanks.
Result :: -6.06

Query :: Also need `O=C(O)c1cc(S(=O)(=O)N2CCCCCC2)c(Cl)cc1Cl` , thanks.
Result :: 0.43

Query :: Also need `CN1CCN(C(=O)c2ccccc2NC(=O)COc2ccccc2Cl)CC1` , thanks.
Result :: 0.74

Query :: Also need CC1C(c2ccccc2)=[N+]([O-])C2(CCCC2)N1O (stereo unspecified) , thanks.
Result :: 1.84

Query :: Also need `CCCCC(=O)Nc1c2c(nn1-c1ccc([N+](=O)[O-])cc1)CS(=O)(=O)C2` , thanks.
Result :: 0.28

Query :: Also need NC(CSC1(c2ccccc2)c2ccccc2-c2ccccc21)C(=O)O (stereo unspecified) , thanks.
Result :: 38.3

Query :: Also need COc1ccc(CNC(=O)C(NS(=O)(=O)c2cccc3nsnc23)C(C)C)cc1 (stereo unspecified) , thanks.
Result :: 2.57

Query :: Also need CCC(=O)N1CCCC1(C)C(=O)Nc1ccc2c(c1)CCN2C(C)=O (stereo unspecified) , thanks.
Result :: -1.12

* * *

Provide the recorded inhibition (reported as % activation of signal) for the entries that follow.
molecular target: DNA (cytosine-5)-methyltransferase 1 (Homo sapiens) (UniProt P26358); experiment: inhibition of DNA methyltransferase DNMT1 – biochemical, molecular beacon, fluorescence, HinP1I cleavage, uHTS, primary screen (AID 588458); conditions: at 10 µM, stronger effect = higher value
The campaign covered roughly 360,000 compounds. About 3,000 (0.83%) were called active. The full list was thinned out, with actives kept by preference.
Express the result in % but write the number alone.

Query :: Name the recorded inhibition (reported as % activation of signal) for COC(=O)c1ccc(C(=O)NC2CC(C)(C)Cc3c2cnn3-c2ccc(F)cc2)nc1 (stereo unspecified) .
Result :: -1.04

Query :: Also need `OCC[C@H]1C[C@H](O)[C@@H](O)[C@]2(CCCCO2)O1` , thanks.
Result :: 5.49

Query :: Also need `CS(=O)(=O)N(CC(=O)N1CCN(c2ccc(F)cc2)CC1)C1CCCCC1` , thanks.
Result :: 0.1

Query :: Also need `O=C(COc1ccc(/C=N/NC(=O)c2ccc(O)cc2)cc1)Nc1ccc([N+](=O)[O-])cc1` , thanks.
Result :: 54

Query :: Also need `O=C(COC(=O)C1CCCCC1)Nc1ccc([N+](=O)[O-])cc1` , thanks.
Result :: -1.74

Query :: Also need `Cc1ccccc1CN1C[C@@H]2C[C@@H](c3cn(C)nc3-c3ccccc3)N3CCC[C@@]23C1=O` , thanks.
Result :: -7.15

Query :: Also need `O=C(CSc1nc2ccccc2c(=O)[nH]1)Nc1nc(-c2ccc(Br)cc2)cs1` , thanks.
Result :: 93.2

Query :: Also need `N#CC(C#N)=CN=c1ccn(Cc2ccc(Cl)cc2Cl)cc1` , thanks.
Result :: -4.93

Query :: Also need `Cc1cccc(NC(=S)N2CCC(c3nc4ccccc4s3)CC2)c1` , thanks.
Result :: -5.14

Query :: Also need `Cc1cc(C)c(-c2csc(NC(=O)CCCc3nc4ccccc4c(=O)[nH]3)n2)c(C)c1` , thanks.
Result :: -5

Query :: Also need `COc1ccc(C)cc1NC(=O)c1cc(-c2ccccc2)nc2c1cnn2C(C)C` , thanks.
Result :: -4.87

Query :: Also need `O=C(CCc1nnc2ccc(NCc3ccco3)nn12)Nc1cc(F)ccc1F` , thanks.
Result :: 29.7

Query :: Also need CC1(Oc2cccc(F)c2)CCN(Cc2ccccc2OC(F)F)C1 (stereo unspecified) , thanks.
Result :: 8.51

Query :: Also need `O=C(NNc1c2ccccc2nc2ccccc12)c1cc2ccccc2cc1O` , thanks.
Result :: -19.2

Query :: Also need `COc1ccc(-c2ccc3c(c2)[C@@H]2C[C@H](N(C)S(=O)(=O)c4ccccc4)[C@H]([C@H](C)O)C(=O)N2CC3)cc1` , thanks.
Result :: -4.42

Query :: Also need N#Cc1cc([N+](=O)[O-])ccc1NCC1CCCO1 (stereo unspecified) , thanks.
Result :: 0.79

Query :: Also need `O=C(COc1ccc(Cl)cc1)Nc1ccccc1CO` , thanks.
Result :: 0.96

Query :: Also need `COc1cc(NC(=O)CCNC(=O)Cn2ccc3ccccc3c2=O)cc(OC)c1OC` , thanks.
Result :: -1.53

Query :: Also need `CCOC(=O)c1sc(N(Cc2ccccc2)C(=O)CN2C(=O)CN(C)C2=O)nc1C` , thanks.
Result :: -3.6

Query :: Also need `O=C(COc1ccc([N+](=O)[O-])cc1)Nc1ccc(N2CCCC2)cc1` , thanks.
Result :: 92.5

Query :: Also need `COc1ccc(/C=C/C(=O)OCC(=O)N2CCN(S(=O)(=O)c3ccc(C)cc3C)CC2)cc1OC` , thanks.
Result :: -0.56

* * *

molecular target: DNA (cytosine-5)-methyltransferase 1 (Homo sapiens) (UniProt P26358); assay: inhibition of DNA methyltransferase DNMT1 – biochemical, molecular beacon, fluorescence, HinP1I cleavage, uHTS, primary screen (AID 588458); conditions: at 10 µM, stronger effect = higher value
Out of some 360,000 compounds screened, about 3,000 (0.83%) were called active. For the sample, actives were picked, then their nearest neighbours and some compounds at random.
Provide the recorded inhibition (reported as % activation of signal) for the entries that follow.
Express the result in % but write the number alone.

Query :: Name the recorded inhibition (reported as % activation of signal) for `CCc1ccccc1NC(=O)CN(C)C(=O)c1cc(C2CC2)nn1-c1ccccc1` .
Result :: -2.35

Query :: Also need `C=CC[C@@H](CC(=O)N[C@H](CO)Cc1ccccc1)C(=O)N[C@@H](COC(=O)[C@@H](CC=C)Cc1ccc(F)cc1)Cc1c[nH]c2ccccc12` , thanks.
Result :: 63.8

Query :: Also need `O=C1/C(=C\c2ccc([N+](=O)[O-])cc2)CS(=O)(=O)C/C1=C/c1ccc([N+](=O)[O-])cc1` , thanks.
Result :: 101

Query :: Also need `COc1cccc(NC(=O)CN(C)C(=O)c2cc(C3CC3)nn2-c2ccccc2)c1` , thanks.
Result :: -5.25

Query :: Also need COCCCC1CCN(C(=O)C2CCC(=O)N(C3CCCCCC3)C2)CC1 (stereo not given) , thanks.
Result :: -2.02

Query :: Also need `CCN(CC(=O)NCC(=O)Nc1cccc(C)c1C)Cc1ccccc1` , thanks.
Result :: 0.32

Query :: Also need `O=C1CSc2ccc(S(=O)(=O)NCc3ccccc3)cc2N1` , thanks.
Result :: -1.62

Query :: Also need `O=c1[nH]c(SCc2cccc(F)c2)nc2ccccc12` , thanks.
Result :: -0.9

Query :: Also need `Cc1ccc2c(CC(=O)NCc3cccs3)coc2c1` , thanks.
Result :: 7.02

Query :: Also need `COc1cc(CC(=O)N2CCC(n3nccc3NC(=O)C3CC3)CC2)cc(OC)c1OC` , thanks.
Result :: 0.88

Query :: Also need `COc1ccccc1N(CC(=O)Nc1ccc(C(F)(F)F)cc1)S(C)(=O)=O` , thanks.
Result :: 7.89

Query :: Also need `CCOC(=O)Cc1csc(NC(=O)COc2ccc3c(C)cc(=O)oc3c2)n1` , thanks.
Result :: -0.49

Query :: Also need `COc1ccc(NC(=O)CN(C)C(=O)c2cc(C3CC3)nn2-c2ccccc2)cc1` , thanks.
Result :: 61.4

Query :: Also need `CCOC(=O)c1sc(=NC(=O)/C=C/c2cccs2)n(C)c1C` , thanks.
Result :: 10.1

Query :: Also need `CCOC(=O)c1c(NC(=S)NC(=O)/C=C/c2cccs2)sc(C)c1C` , thanks.
Result :: 58.9

Query :: Also need `COc1ccc(CCc2nnc(CCC(=O)NCc3cnn(-c4ccccc4C)c3)o2)cc1` , thanks.
Result :: -0.69

Query :: Also need `C/C(=N\NC(=O)CCn1nc(C)cc1C)C(C)(C)C` , thanks.
Result :: -0.8

Query :: Also need O=C(CCC1CCCC1)N=C1SC2CS(=O)(=O)CC2N1Cc1ccccc1 (stereo not given) , thanks.
Result :: 14.4

Query :: Also need `C=CCC[C@H](Cc1ccc(F)cc1)C(=O)OC[C@@H](Cc1c[nH]c2ccccc12)NC(=O)[C@H](CC=C)CC(=O)N[C@H](CO)Cc1ccccc1` , thanks.
Result :: 4.02

Query :: Also need `Cc1cc(=O)oc2cc(OCC(=O)Nc3nnc(C4CC4)s3)ccc12` , thanks.
Result :: -3.06
